tested on: retinal precursor cells; experiment: Sphere passaging and high-throughput drug screening: proliferation of retinal precursor cells from the ciliary epithelium, cell number after one week; format: cell-based, mammalian; settings: control experiment (absence of a compound) = 100; cells grown for one week
Experimental endpoint: Cell proliferation within one week [%] (%)
Give bare numbers, in %.

Recorded Cell proliferation within one week [%], per entry:
INSERT INTO results (compound, measured_target, output_unit, value_measured) VALUES
  ('COc1cc(NC(=O)C2COc3ccccc3O2)ccc1-c1ccncc1 (racemic) [Compound 19]', 'retinal precursor cells', '%', 110),
  ('COc1ccc2c(c1)CC(C(=O)Nc1ccc(-c3cnco3)c(Cl)c1)CO2 (racemic) [Compound 3]', 'retinal precursor cells', '%', 138),
  ('Cc1cc(NC(=O)C2COc3ccccc3C2)ccc1-c1cnco1 (racemic) [Compound 22]', 'retinal precursor cells', '%', 120),
  ('O=C(Nc1ccc(-c2cnco2)c(Cl)c1)C1COc2ccccc21 (racemic) [Compound 35]', 'retinal precursor cells', '%', 125),
  ('COc1cc(NC(=O)C2COc3ccccc3O2)ccc1-c1cnco1 (racemic) [Compound 13]', 'retinal precursor cells', '%', 137),
  ('Cc1ncc(-c2ccc(NC(=O)C3COc4ccccc4C3)cc2Cl)o1 (racemic) [Compound 30]', 'retinal precursor cells', '%', 119),
  ('O=C(Nc1ccc(-c2cnco2)c(Cl)c1)C1COc2cc(F)ccc2C1 (racemic) [Compound 37]', 'retinal precursor cells', '%', 158);

Proceeding to the next compound to report its Cell proliferation within one week [%].
Data request: Find the recorded Cell proliferation within one week [%] belonging to Cc1cc(NC(=O)C2COc3ccccc3C2)ccc1-c1cnco1 (centres unmarked) [Compound 25] and report it.
Data returned: 120

----------
system: retinal precursor cells; test: Sphere passaging and high-throughput drug screening: proliferation of retinal precursor cells from the ciliary epithelium, cell number after one week; type: cell-based, mammalian; conditions: control experiment (absence of a compound) = 100; cells grown for one week
Can you tell me Cell proliferation within one week [%] for the items I'm about to list?
Numbers only, in %.

// below: answered compounds
INSERT INTO measurements (compound, experimental_endpoint, value_measured) VALUES
  ('O=C(Nc1ccc(-c2cnco2)c(Cl)c1)C1COc2ccccc2C1 (single isomer, unassigned; (-)) [Compound 21]', 'Cell proliferation within one week [%]', 126),
  ('COc1ccc2c(c1)OC(C(=O)Nc1ccc(-c3cnco3)c(F)c1)CO2 (racemic) [Compound 7]', 'Cell proliferation within one week [%]', 123);

Note: attention shifts to another entry.
Data request: Consider the compound shown here: Cc1cc(-c2cnco2)ccc1NC(=O)C1COc2ccccc2C1 (racemic) [Compound 23] What is its recorded Cell proliferation within one week [%]?
Data returned: 116

----------
test system: retinal precursor cells; experiment: Sphere passaging and high-throughput drug screening: proliferation of retinal precursor cells from the ciliary epithelium, cell number after one week; format: cell-based, mammalian; settings: control experiment (absence of a compound) = 100; cells grown for one week
For each record, write down the corresponding Cell proliferation within one week [%].
Answers are plain numbers, in %.

// worked examples, Cell proliferation within one week [%] included
INSERT INTO results (compound, experimental_endpoint, value_measured) VALUES
  ('O=C(Nc1ccc(-c2cnco2)c(Cl)c1)C1Cc2ccccc2C1 (racemic) [Compound 36]', 'Cell proliferation within one week [%]', 124),
  ('O=C(Nc1ccc(-c2cnco2)c(Cl)c1)C1COc2ccc(F)cc2C1 (centres unmarked) [Compound 42]', 'Cell proliferation within one week [%]', 124),
  ('O=C(Nc1ccc(-n2cncn2)c(C(F)(F)F)c1)C1COc2ccccc2C1 (racemic) [Compound 28]', 'Cell proliferation within one week [%]', 118),
  ('O=C(Nc1ccc(-c2cnco2)c(Cl)c1)C1COc2ccccc2O1 (racemic) [Compound 41]', 'Cell proliferation within one week [%]', 114);

Provide the reported Cell proliferation within one week [%] of each entry below, same order.
1. O=C(Nc1ccc(-c2cnco2)c(F)c1)C1CCOc2ccccc21 (racemic) [Compound 4]
2. COc1cc(NC(=O)C2COc3ccccc3C2)ccc1-c1ccncc1 (racemic) [Compound 17]
3. O=C(Nc1ccc(-c2cnco2)c(Cl)c1)C1COc2ccccc2O1 (racemic) [Compound 6]
4. O=C(Nc1ccc(-c2cnco2)c(F)c1)C1COc2ccccc2C1 (racemic) [Compound 5]

Data returned:
106
114
120
133

----------
Record form. Attribute: Cell proliferation within one week [%]. Fill in for each entry.
system: retinal precursor cells; assay: Sphere passaging and high-throughput drug screening: proliferation of retinal precursor cells from the ciliary epithelium, cell number after one week; assay type: cell-based, mammalian; conditions: control experiment (absence of a compound) = 100; cells grown for one week
Numbers only, in %.

Would you please look over these solved cases?
INSERT INTO results (compound, value_measured) VALUES
  ('COc1ccc2c(c1)CC(C(=O)Nc1ccc(-c3cnco3)c(F)c1)CO2 (racemic) [Compound 10]', 121),
  ('O=C(Nc1ccc(-c2cnco2)cc1OC(F)F)C1COc2ccccc2C1 (racemic) [Compound 24]', 126),
  ('COc1ccc2c(c1)CC(C(=O)Nc1ccc(-c3cnco3)c(OC)c1)CO2 (racemic) [Compound 14]', 196);

// below: Cell proliferation within one week [%] requested for another compound
Data request: Lab request: please report Cell proliferation within one week [%] under test system retinal precursor cells for COc1ccc2c(c1)CC(C(=O)Nc1ccc(-c3ccncc3)c(OC)c1)CO2 (racemic) [Compound 16]
Data returned: 143

----------
tested on: retinal precursor cells; assay: Sphere passaging and high-throughput drug screening: proliferation of retinal precursor cells from the ciliary epithelium, cell number after one week; assay type: cell-based, mammalian; conditions: control experiment (absence of a compound) = 100; cells grown for one week
Experimental endpoint: Cell proliferation within one week [%] (%)
Numbers only, in %.

INSERT INTO measurements (compound, output_unit, value_measured) VALUES
  ('COc1cc(NC(=O)C2CCOc3ccccc32)ccc1-c1cnco1 (racemic) [Compound 11]', '%', 140),
  ('O=C(Nc1ccc(-c2cnco2)c(Cl)c1)C1Cc2ccccc2O1 (racemic) [Compound 31]', '%', 137),
  ('O=C(Nc1ccc(-c2cnco2)c(Cl)c1)C1COc2c(F)cc(F)cc2C1 (racemic) [Compound 39]', '%', 132),
  ('O=C(Nc1ccc(-c2cnco2)c(Cl)c1)C1CCOc2ccccc21 (racemic) [Compound 32]', '%', 113),
  ('COc1ccc2c(c1)OC(C(=O)Nc1ccc(-c3cnco3)c(OC)c1)CO2 (racemic) [Compound 20]', '%', 113),
  ('COc1cccc2c1CC(C(=O)Nc1ccc(-c3cnco3)c(Cl)c1)CO2 (racemic) [Compound 40]', '%', 107);

// batch mode: one Cell proliferation within one week [%] value per listed entry
1. COc1cc(NC(=O)C2CCOc3ccccc32)ccc1-c1ccncc1 (racemic) [Compound 15]
2. COc1ccc2c(c1)OC(C(=O)Nc1ccc(-c3ccncc3)c(OC)c1)CO2 (racemic) [Compound 18]
3. O=C(Nc1ccc(-c2nnco2)c(F)c1)C1COc2ccccc2C1 (racemic) [Compound 29]
4. O=C(Nc1ccc(-c2cnco2)c(Cl)c1)C1CCOc2ccccc21 (racemic) [Compound 2]
5. O=C(Nc1ccc(-c2cnco2)c(Cl)c1)C1COc2ccccc2C1 (racemic) [Compound 1]
6. O=C(Nc1ccc(-c2cnco2)c(F)c1)C1COc2ccccc2O1 (racemic) [Compound 9]

Data returned:
122
104
108
128
179
118

Respectfully, I request Cell proliferation within one week [%] for each entry included below.
1. O=C(CC1Cc2ccccc2O1)Nc1ccc(-c2cnco2)c(Cl)c1 (racemic) [Compound 34]
2. COc1ccc2c(c1)OC(C(=O)Nc1ccc(-c3cnco3)c(Cl)c1)CO2 (racemic) [Compound 8]
3. O=C(Nc1ccc(-c2cnco2)c(Cl)c1)C1COc2ccc(Cl)cc2C1 (racemic) [Compound 38]
4. COc1cc(NC(=O)C2COc3ccccc3C2)ccc1-c1cnco1 (racemic) [Compound 12]

Data returned:
[129, 117, 122, 230]

Data request: Give the reported Cell proliferation within one week [%] for O=C(Nc1ccc(-c2cnco2)c(Cl)c1)C1CCc2ccccc21 (racemic) [Compound 33] (system: retinal precursor cells).
Data returned: 116
